Assay: Aqueous solubility
Assay type: physicochemical
Procedure: From such a viewpoint, the metal corrosion inhibitor preferably has an aqueous solubility at 25° C. of 20 g/L or more, more preferably 50 g/L or more, particularly preferably 100 g/L or more.
Recorded measurements of aqueous solubility, one per entry
Write it as a number; the unit g/L goes unstated.

# Molecule, aqueous solubility (g/L)
data = [
    ("S=c1[nH]c2ccccc2s1 [Example D-5, mercaptobenzothiazole, reference compound]", 0.3),
]

Pending molecule:
Enquiry: Report aqueous solubility for c1ccc2[nH]nnc2c1 [Example D-3, 1,2,3-benzotriazole] please.
Return: 20

----------
Assay: Absorption coefficient at a wavelength of 365 nm
Format: physicochemical
Conditions: at 365 nm
Observation type: absorption coefficient (mL/g/cm)
Write it as a number; the unit mL/g/cm goes unstated.

Recorded absorption coefficient, per entry:
# Compound, Units, absorption coefficient
records = [
    ("c1ccc2[nH]nnc2c1", "mL/g/cm", 0.8),
    ("Sc1nnc(S)s1 [Example D-4, 2,5-dimercapto-1,3,4-thiadiazole, reference compound]", "mL/g/cm", 90),
    ("c1nc[nH]n1", "mL/g/cm", 0.3),
    ("c1c[nH]nn1", "mL/g/cm", 0.3),
]

Pending compound:
Enquiry: Report absorption coefficient for S=c1[nH]c2ccccc2s1 [Example D-5, mercaptobenzothiazole, reference compound] please.
Return: 65
